- assay target: UniProtKB Q13547
- Sequence (Q13547 whole entry, canonical isoform): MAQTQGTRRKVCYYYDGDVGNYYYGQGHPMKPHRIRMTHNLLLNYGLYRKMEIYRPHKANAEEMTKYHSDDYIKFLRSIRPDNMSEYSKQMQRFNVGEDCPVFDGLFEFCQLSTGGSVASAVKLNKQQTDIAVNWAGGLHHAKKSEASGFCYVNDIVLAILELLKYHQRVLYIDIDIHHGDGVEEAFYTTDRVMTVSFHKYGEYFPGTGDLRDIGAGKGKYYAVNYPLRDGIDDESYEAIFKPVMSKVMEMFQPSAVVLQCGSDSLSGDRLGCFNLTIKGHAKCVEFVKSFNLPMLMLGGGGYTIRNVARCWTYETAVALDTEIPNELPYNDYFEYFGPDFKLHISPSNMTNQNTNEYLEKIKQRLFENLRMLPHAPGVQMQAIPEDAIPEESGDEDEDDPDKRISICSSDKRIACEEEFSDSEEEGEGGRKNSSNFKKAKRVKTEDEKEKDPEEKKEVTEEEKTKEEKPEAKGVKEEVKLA
- assay summary: HDAC isoform inhibition assay (Reaction Biology)
- condition notes: read-out: IC50 HDAC1; 10-dose IC50 mode, threefold serial dilution starting at 10 μM
Rule: IC50 below 4 µM gives TRUE, anything at or above gives FALSE.

These recorded examples may help you get a feel for the data.
molecule | group
O=C(/C=C/c1ccc(S(=O)(=O)N[C@@H]2C[C@H]2c2ccccc2)cc1)NO [Compound 3] | TRUE
O=C(NO)c1ccc(CN[C@@H]2C[C@H]2c2ccccc2)cc1 [Compound 1] | FALSE
O=C(/C=C/c1cccc(S(=O)(=O)N[C@@H]2C[C@H]2c2ccccc2)c1)NO [Compound 2] | TRUE
O=C(NO)c1ccc(CN2CCC(S(=O)(=O)N[C@@H]3C[C@H]3c3ccccc3)CC2)cc1 [Compound 10] | FALSE

Here's the next entry for you.
Q. Please state whether IC50 is below 4 µM for O=C(NO)c1ccc(CN2CCC(CN[C@@H]3C[C@H]3c3ccccc3)CC2)cc1 [Compound 9]
A. FALSE

----------
- assay target: UniProtKB Q9UBN7
- Sequence (Q9UBN7 whole entry, canonical isoform): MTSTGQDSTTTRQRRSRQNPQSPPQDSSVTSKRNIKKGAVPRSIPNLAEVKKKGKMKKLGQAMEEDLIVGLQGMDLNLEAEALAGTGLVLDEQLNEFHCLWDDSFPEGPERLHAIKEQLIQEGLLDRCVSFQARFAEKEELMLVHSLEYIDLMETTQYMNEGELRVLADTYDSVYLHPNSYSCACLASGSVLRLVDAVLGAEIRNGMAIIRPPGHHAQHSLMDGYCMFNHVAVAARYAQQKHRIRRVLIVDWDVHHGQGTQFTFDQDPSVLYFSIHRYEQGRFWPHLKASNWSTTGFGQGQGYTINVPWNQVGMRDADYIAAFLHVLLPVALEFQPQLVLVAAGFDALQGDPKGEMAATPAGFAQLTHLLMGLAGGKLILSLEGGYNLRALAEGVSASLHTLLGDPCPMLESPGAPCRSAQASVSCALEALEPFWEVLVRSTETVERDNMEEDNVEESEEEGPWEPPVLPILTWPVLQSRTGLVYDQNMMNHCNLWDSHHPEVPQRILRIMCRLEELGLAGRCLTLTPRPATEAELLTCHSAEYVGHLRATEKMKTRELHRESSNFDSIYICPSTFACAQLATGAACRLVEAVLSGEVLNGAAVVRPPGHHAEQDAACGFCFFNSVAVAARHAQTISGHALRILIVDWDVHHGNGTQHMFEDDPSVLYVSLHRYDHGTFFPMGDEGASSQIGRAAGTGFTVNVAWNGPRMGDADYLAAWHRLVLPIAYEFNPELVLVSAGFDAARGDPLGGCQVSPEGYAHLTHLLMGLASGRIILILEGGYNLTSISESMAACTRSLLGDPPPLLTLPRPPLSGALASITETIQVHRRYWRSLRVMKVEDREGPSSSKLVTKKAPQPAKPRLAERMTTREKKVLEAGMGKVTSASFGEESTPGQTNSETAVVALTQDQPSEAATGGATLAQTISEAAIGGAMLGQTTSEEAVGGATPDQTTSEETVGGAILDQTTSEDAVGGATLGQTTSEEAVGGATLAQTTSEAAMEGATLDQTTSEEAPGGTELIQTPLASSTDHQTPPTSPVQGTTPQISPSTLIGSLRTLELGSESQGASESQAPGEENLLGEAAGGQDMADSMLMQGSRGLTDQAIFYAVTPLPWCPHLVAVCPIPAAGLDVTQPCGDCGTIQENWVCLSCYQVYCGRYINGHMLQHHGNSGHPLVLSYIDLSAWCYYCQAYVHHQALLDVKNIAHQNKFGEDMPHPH
- assay summary: HDAC isoform inhibition assay (Reaction Biology)
I'd be grateful if you could share measured IC50 for these entries.

compound | IC50
O=C(/C=C/c1cccc(S(=O)(=O)N[C@@H]2C[C@H]2c2ccccc2)c1)NO [Compound 2] | 0.011 µM

For this compound ( O=C(/C=C/c1ccc(S(=O)(=O)N[C@@H]2C[C@H]2c2ccccc2)cc1)NO [Compound 3] ), measured IC50 is 0.009 µM
